target: microtubules

PROTEIN	MT depolymerization
KinI-3 construct E233F541 (protein) LGMREVRRGEINIITVEDKETLLVHEKKEAVDLTQYILQHVFYFDEVFGEACTNQDVYMKTTHPLIQHIFNGGNATCFAYGQTGAGKTYTMIGTHENPGLYALAAKDIFRQLEVSQPRKHLFVWISFYEIYCGQLYDLLNRRKRLFAREDSKHMVQIVGLQELQVDSVELLLEVILKGSKERSTGATGVNADSSRSHAVIQIQIKDSAKRTFGRISFIDLAGSERAADARDSDRQTKMEGAEINQSLLALKECIRALDQEHTHTPFRQSKLTQVLKDSFIGNAKTCMIANISPSHVATEHTLNTLRYAD	no
KinI-3 construct E213/L546 (protein) MEKQNPWTEMEKIRVCVRKRPLGMREVRRGEINIITVEDKETLLVHEKKEAVDLTQYILQHVFYFDEVFGEACTNQDVYMKTTHPLIQHIFNGGNATCFAYGQTGAGKTYTMIGTHENPGLYALAAKDIFRQLEVSQPRKHLFVWISFYEIYCGQLYDLLNRRKRLFAREDSKHMVQIVGLQELQVDSVELLLEVILKGSKERSTGATGVNADSSRSHAVIQIQIKDSAKRTFGRISFIDLAGSERAADARDSDRQTKMEGAEINQSLLALKECIRALDQEHTHTPFRQSKLTQVLKDSFIGNAKTCMIANISPSHVATEHTLNTLRYADRVKELLEHHHHHH	yes
